# system.under.test: HiDapE (Haemophilus influenzae)
# Sequence (P44514 whole entry): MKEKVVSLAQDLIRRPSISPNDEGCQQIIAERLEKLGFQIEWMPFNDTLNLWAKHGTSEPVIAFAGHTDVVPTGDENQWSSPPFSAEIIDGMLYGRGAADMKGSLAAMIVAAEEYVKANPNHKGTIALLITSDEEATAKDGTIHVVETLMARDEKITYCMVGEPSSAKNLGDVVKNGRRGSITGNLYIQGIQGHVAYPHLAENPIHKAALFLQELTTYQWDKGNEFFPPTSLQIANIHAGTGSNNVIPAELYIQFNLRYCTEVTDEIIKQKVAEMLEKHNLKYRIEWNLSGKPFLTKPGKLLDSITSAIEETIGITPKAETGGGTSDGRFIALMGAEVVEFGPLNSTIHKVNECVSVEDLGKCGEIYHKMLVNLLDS
metric.name: Ki (µM)
Output spec: scalar in µM, unitless text.

// query Which Ki is listed for Cc1cc(S[C@H](C)C(=O)Nc2ccccn2)n(-c2ccccc2)n1 ?
// result 17.3

* * *

metric.name: IC50
Could you kindly put the unit after your number?

// query GET /values?readout=IC50&system=HiDapE (Haemophilus influenzae, UniProt P44514)&item= Cc1cc(SCC(=O)Nc2cnccn2)n(-c2ccccc2)n1
// result 20.2 µM

// query Lab request: please report IC50 under test system HiDapE (Haemophilus influenzae, UniProt P44514) for Cc1cc(SCC(=O)Nc2ccccn2)n(-c2ccccc2)n1
// result 17.9 µM

// query Which IC50 is reported with HiDapE (Haemophilus influenzae, UniProt P44514) for this entry: Cc1cc(SCC(=O)Nc2nccs2)n(-c2ccccc2)n1 ?
// result 22.4 µM

// query Quick check: IC50 on HiDapE (Haemophilus influenzae, UniProt P44514), item Cc1cc(S[C@H](C)C(=O)Nc2ccccn2)n(-c2ccccc2)n1 ?
// result 18.8 µM

* * *

# system.under.test: UniProt P44514
# method.summary: Discontinuous ninhydrin-based HiDapE inhibition assay
# Format: biochemical
# condition.context: pH 7.5, 100 μM inhibitor, 8 nM HiDapE, 2 mM N6-methyl-L,L-SDAP, triplicate
inhibition at 100 µM below 60% gives Not fulfilled; inhibition at 100 µM at or above it gives Fulfilled.

// query Is the recorded value of inhibition at 100 µM equal to or greater than 60% for this compound? Cc1cc(SCC(=O)Nc2cnccn2)n(-c2ccccc2)n1 [Compound 7h]
// result Fulfilled

// query # bool: inhibition at 100 µM of Cc1cc(SC(C)C(=O)NCc2ccccc2)n(-c2ccccc2)n1 (stereo not shown) [Compound 7o] >= 60%
// result Fulfilled

// query Exam item: decide whether the reported inhibition at 100 µM for Cc1ccc(NC(=O)CSc2cc(C)nn2-c2ccccc2)nc1 [Compound 7e] is at least 60%.
// result Fulfilled

// query Reported inhibition at 100 µM reaches at least 60% for Cc1cc(SC(C)C(=O)Nc2ccccc2)n(-c2ccccc2)n1 (stereo not shown) [Compound 7n] ?
// result Fulfilled

// query Could you verify whether the entry Cc1cc(SCC(=O)Nc2ncccn2)n(-c2ccccc2)n1 [Compound 7g] shows inhibition at 100 µM of no less than 60%?
// result Not fulfilled

// query Could you tell me if the measured inhibition at 100 µM of Cc1cc(SCC(=O)Nc2nc3ccccc3[nH]2)n(-c2ccccc2)n1 [Compound 7k] reaches 60% or more?
// result Not fulfilled

// query Decide: inhibition at 100 µM of CCN(CC)C(=O)CSc1cc(C)nn1-c1ccccc1 [Compound 7j] >= 60%?
// result Not fulfilled

// query Confirm if inhibition at 100 µM reported for the compound Cc1cc(SC(C)C(=O)Nc2ccon2)n(-c2ccccc2)n1 (stereo not shown) [Compound 7m] is 60% or above.
// result Not fulfilled

// query Could you tell me if the measured inhibition at 100 µM of Cc1cc(SCC(=O)Nc2nccs2)n(-c2ccccc2)n1 [Compound 7a] reaches 60% or more?
// result Fulfilled

// query Decide: inhibition at 100 µM of Cc1cc(SC(C)C(=O)Nc2ccccn2)n(-c2ccccc2)n1 (stereo not shown) [Compound 7p] >= 60%?
// result Fulfilled

* * *

Consider the following molecules; for each one, report its inhibition at 100 µM.
# system.under.test: HiDapE (Haemophilus influenzae)
# method.summary: Discontinuous ninhydrin-based HiDapE inhibition assay
# Type: biochemical
# condition.context: pH 7.5, 100 μM inhibitor, 8 nM HiDapE, 2 mM N6-methyl-L,L-SDAP, triplicate
Your answer is read as %, so omit the unit and give the number.

// query Form field - read-out: inhibition at 100 µM; system: HiDapE (Haemophilus influenzae); submitted item: Cc1cc(SCC(=O)Nc2ccc(Cl)cn2)n(-c2ccccc2)n1
// result 54.2

// query For HiDapE (Haemophilus influenzae), provide inhibition at 100 µM of Cc1cc(S[C@@H](C)C(=O)Nc2ccccn2)n(-c2ccccc2)n1 please.
// result 14.6

// query API: value(readout= inhibition at 100 µM, system= HiDapE (Haemophilus influenzae), query= Cc1cc(SCC(=O)Nc2ccccn2)n(-c2ccccc2)n1 )
// result 85.7

// query # query: inhibition at 100 µM | item Cc1cc(SCC(=O)Nc2ccon2)n(-c2ccccc2)n1 | system: HiDapE (Haemophilus influenzae)
// result 20.3

// query Recall the recorded inhibition at 100 µM for Cc1cc(SCC(=O)Nc2ccccc2)n(-c2ccccc2)n1 with HiDapE (Haemophilus influenzae) and state it.
// result 80.5

// query Query for HiDapE (Haemophilus influenzae): what inhibition at 100 µM does the record show for Cc1cc(S[C@H](C)C(=O)Nc2ccccn2)n(-c2ccccc2)n1 ?
// result 99

// query Value wanted: inhibition at 100 µM (HiDapE (Haemophilus influenzae)) of entry Cc1cc(SC(C)C(=O)Nc2nccs2)n(-c2ccccc2)n1 (stereo not shown)
// result 28
